Across several publications, the following pKi results were reported for the protein given by its sequence.
Protein target, amino acids: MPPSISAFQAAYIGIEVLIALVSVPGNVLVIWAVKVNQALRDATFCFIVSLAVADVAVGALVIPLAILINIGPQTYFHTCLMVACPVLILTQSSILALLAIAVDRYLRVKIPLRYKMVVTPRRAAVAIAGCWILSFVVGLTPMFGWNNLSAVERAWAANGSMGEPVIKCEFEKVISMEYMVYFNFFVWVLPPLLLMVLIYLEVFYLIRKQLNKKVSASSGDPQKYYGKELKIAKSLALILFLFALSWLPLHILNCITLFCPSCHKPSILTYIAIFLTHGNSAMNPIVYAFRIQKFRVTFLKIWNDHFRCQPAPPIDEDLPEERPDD
pKi: −log10 of the molar value.

stdin: Look at this molecule and give its reported pKi. `CN(C)c1nc(Nc2ccccc2)sc1C(=O)Nc1sc2c(c1C#N)CCCC2`
stdout: < 4.52

stdin: Look at this molecule and give its reported pKi. `COc1ccc(-c2nc3c4cn(C)nc4nc(NC(=O)Cc4ccccc4)n3n2)cc1`
stdout: < 4.52

Query molecule follows.
stdin: Look at this molecule and give its reported pKi. `COc1ccc(C(=O)Nc2nc(-c3ccccc3)c(-c3nc4ccccc4c(=O)n3-c3ccccc3)s2)cc1`
stdout: < 6.00
